# Tested On: Alpha-2C adrenergic receptor (Homo sapiens) (UniProt P18825)
# Sequence (P18825 whole entry, looked up): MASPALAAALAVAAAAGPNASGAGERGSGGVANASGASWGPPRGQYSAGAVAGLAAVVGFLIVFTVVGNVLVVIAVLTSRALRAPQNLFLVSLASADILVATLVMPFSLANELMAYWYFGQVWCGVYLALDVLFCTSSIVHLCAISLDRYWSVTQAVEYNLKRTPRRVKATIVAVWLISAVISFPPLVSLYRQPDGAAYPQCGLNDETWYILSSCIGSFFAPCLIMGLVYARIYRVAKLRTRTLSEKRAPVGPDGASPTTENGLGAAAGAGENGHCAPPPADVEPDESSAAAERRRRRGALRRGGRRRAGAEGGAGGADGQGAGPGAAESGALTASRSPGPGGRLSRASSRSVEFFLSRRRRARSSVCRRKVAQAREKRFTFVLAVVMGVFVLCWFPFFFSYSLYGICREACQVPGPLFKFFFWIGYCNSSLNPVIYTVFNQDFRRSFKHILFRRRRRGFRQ
# Run Description: modulators of alpha2C/GIRK thallium flux, primary screen, cell-based, HEK293 alpha2C/GIRK1/2 (AID 624);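 also: slope of fluorescence ratio to pre-addition baseline per second over 15 to 24 s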
# Test Settings: thallium flux BTC fluorescence, at 10 µM, actives lie on both sides
Calls of active or inactive are those of the source.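 The calls were made as follows: active = fluorescence slope after compound addition differing from the mean of all screened samples at 99.7% confidence, in either direction; inactive = the rest.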
slope values, listed per item
Readout Type: slope

>  <Compound>
Cc1cc(NC(=O)C2=C(O)c3ccccc3S(=O)(=O)N2C)no1

>  <Tested On>
Alpha-2C adrenergic receptor (Homo sapiens) (UniProt P18825)

>  <Readout Type>
slope

>  <Result>
0.00444 (inactive)

$$$$
>  <Compound>
COc1cccc(-c2nnc3sc(-c4cccs4)nn23)c1

>  <Tested On>
Alpha-2C adrenergic receptor (Homo sapiens) (UniProt P18825)

>  <Readout Type>
slope

>  <Result>
0.00547 (inactive)

$$$$
>  <Compound>
CC1(C)CC(=O)C(CCCN2C(=O)c3ccccc3C2=O)C(=O)C1

>  <Tested On>
Alpha-2C adrenergic receptor (Homo sapiens) (UniProt P18825)

>  <Readout Type>
slope

>  <Result>
0.00431 (inactive)

$$$$
>  <Compound>
CC(C)C1Cc2c(sc3c2c(=O)n(Cc2ccccc2)c2nncn32)CO1 (stereo unspecified)

>  <Tested On>
Alpha-2C adrenergic receptor (Homo sapiens) (UniProt P18825)

>  <Readout Type>
slope

>  <Result>
0.00509 (inactive)

$$$$
>  <Compound>
CC1(C)CC(=O)C2=C(C1)N(Cc1ccco1)C(=O)C2(O)C(F)(F)F (stereo unspecified)

>  <Tested On>
Alpha-2C adrenergic receptor (Homo sapiens) (UniProt P18825)

>  <Readout Type>
slope

>  <Result>
0.00641 (inactive)

$$$$
>  <Compound>
CCc1cccc(CC)c1N(COC)C(=O)Cn1nnc2ccccc21

>  <Tested On>
Alpha-2C adrenergic receptor (Homo sapiens) (UniProt P18825)

>  <Readout Type>
slope

>  <Result>
0.00431 (inactive)

$$$$
>  <Compound>
CC(C)C(C(=O)Nc1ncn[nH]1)N1C(=O)c2ccccc2C1=O (stereo unspecified)

>  <Tested On>
Alpha-2C adrenergic receptor (Homo sapiens) (UniProt P18825)

>  <Readout Type>
slope

>  <Result>
0.0054 (inactive)

$$$$
>  <Compound>
CCN(CC)CCNC(=O)c1ccc(NC(C)=O)cc1

>  <Tested On>
Alpha-2C adrenergic receptor (Homo sapiens) (UniProt P18825)

>  <Readout Type>
slope

>  <Result>
0.00544 (inactive)

$$$$
>  <Compound>
CCCC(=O)N(Cc1cc2ccccc2[nH]c1=O)c1ccccc1OC

>  <Tested On>
Alpha-2C adrenergic receptor (Homo sapiens) (UniProt P18825)

>  <Readout Type>
slope

>  <Result>
0.00461 (inactive)

$$$$
>  <Compound>
N#CC12CCCCC1CC1CCCCC1(C#N)N2Cc1cccnc1 (stereo unspecified)

>  <Tested On>
Alpha-2C adrenergic receptor (Homo sapiens) (UniProt P18825)

>  <Readout Type>
slope

>  <Result>
0.00335 (inactive)

$$$$
>  <Compound>
CCOC(=O)C1=C(CSc2nc3c(cc2C#N)CN(C)CC3)OC(N)=C(C#N)C1c1ccccc1 (stereo unspecified)

>  <Tested On>
Alpha-2C adrenergic receptor (Homo sapiens) (UniProt P18825)

>  <Readout Type>
slope

>  <Result>
0.00325 (inactive)

$$$$

----------
# Tested On: Voltage-gated potassium channel subunit beta-2 (Rattus norvegicus)
# Run Description: KvBeta positive modulators, primary screen, biochemical, NADPH fluorescence (AID 623);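 also: fluorescence intensity change per second fitted from 20 to 320 s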
# Test Settings: Recombinant KvBeta, NADPH fluorescence decrease slope, 10 min; at 10 µM; active compounds read low
NADPH fluorescence slope values, listed per item

>  <Compound>
Cc1cc(C)cc(-n2c3nc4ccccc4nc3c3c(=O)n(Cc4ccco4)cnc32)c1

>  <NADPH fluorescence slope>
-0.000101

$$$$
>  <Compound>
CC1(C)Cc2c(sc3nc(SCC#N)n(C4CCCCC4)c(=O)c23)CO1

>  <NADPH fluorescence slope>
-4.5e-05

$$$$
>  <Compound>
CCCCCSc1nc(O)cc(=O)[nH]1

>  <NADPH fluorescence slope>
1.3e-05

$$$$
>  <Compound>
CCOC(=O)C1=C(C)N=C2SC(C)C(=O)N2C1c1cccc(F)c1 (stereo unspecified)

>  <NADPH fluorescence slope>
-0.000135

$$$$
>  <Compound>
CC(=O)c1c(C)c2c(n1CCN(C)C)CCCC2

>  <NADPH fluorescence slope>
-1.7e-05

$$$$
>  <Compound>
O=C(c1ccccc1)C(CCC(CN1CCOCC1)C(=O)c1ccccc1)CN1CCOCC1 (stereo unspecified)

>  <NADPH fluorescence slope>
-1.8e-05

$$$$

----------
# Tested On: Dual specificity protein phosphatase 6 (Homo sapiens) (UniProt Q16828)
# Sequence (Q16828 whole entry, looked up): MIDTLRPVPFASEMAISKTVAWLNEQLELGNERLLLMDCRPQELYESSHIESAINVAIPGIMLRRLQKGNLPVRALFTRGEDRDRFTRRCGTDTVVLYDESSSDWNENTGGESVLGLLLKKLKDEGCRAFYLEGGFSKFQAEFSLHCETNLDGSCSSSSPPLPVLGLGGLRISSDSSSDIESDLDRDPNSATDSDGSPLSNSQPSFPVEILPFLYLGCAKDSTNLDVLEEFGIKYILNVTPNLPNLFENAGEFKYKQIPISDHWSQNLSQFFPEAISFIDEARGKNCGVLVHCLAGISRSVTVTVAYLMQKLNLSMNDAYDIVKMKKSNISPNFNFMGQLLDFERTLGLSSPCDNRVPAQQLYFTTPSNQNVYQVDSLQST
# Run Description: DUSP6 inhibitors restoring Erk phosphorylation by chemical complementation, primary imaging in DUSP6-transfected HeLa (AID 609);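 also: phospho-Erk level distribution per well compared with pooled transfected vehicle control wells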
# Test Settings: HeLa MKP-3 transfected, phospho-Erk imaging KS statistic; at 10 µM; active compounds read high; cells stimulated with TPA for 15 min
inhibition values, listed per item

>  <Compound>
CCOc1ccc(-n2c(SCc3ccc(C#N)cc3)nnc2-c2cccnc2)cc1

>  <inhibition, %>
13.4

$$$$
>  <Compound>
C[N+](C)(C)CCOP(=O)([O-])OC[C@H](O)CO

>  <inhibition, %>
15.3

$$$$
>  <Compound>
C=CCn1c(SCC(=O)NC23CC4CC(CC(C4)C2)C3)nc(O)cc1=O

>  <inhibition, %>
7.83

$$$$
>  <Compound>
C[C@@H]1C[C@H]2[C@@H]3C[C@H](F)C4=CC(=O)C=C[C@]4(C)[C@@]3(F)[C@@H](O)C[C@]2(C)[C@@]1(O)C(=O)COC(=O)C(C)(C)C

>  <inhibition, %>
5.42

$$$$
>  <Compound>
c1ccc(Cc2nnc3n2CCCCC3)cc1

>  <inhibition, %>
-0.608

$$$$
>  <Compound>
CCCC(=O)Nc1ccc(OCC(O)CNC(C)C)c(C(C)=O)c1 (configuration not stated)

>  <inhibition, %>
11.3

$$$$
>  <Compound>
CCOC(=O)c1c(CNCCN(CC)CC)n(C)c2cc(Br)c(OC)cc12

>  <inhibition, %>
1.75

$$$$
>  <Compound>
O=C(NCCCn1ccnc1)C(Cc1ccccc1)N1C(=O)c2ccccc2C1=O (configuration not stated)

>  <inhibition, %>
1.6e-07

$$$$
>  <Compound>
C=CCNc1sc(C(=O)C2CC2)c(N)c1C#N

>  <inhibition, %>
19.4

$$$$
>  <Compound>
c1cncc(Oc2cccc(Oc3cccnc3)c2)c1

>  <inhibition, %>
-2.07

$$$$
>  <Compound>
Nc1[nH]nc2nc(NCc3ccccc3)c3c(c12)CCN(Cc1ccccc1)C3

>  <inhibition, %>
15.1

$$$$
>  <Compound>
CCCCOc1ccc(C(=O)Nn2cnnc2)cc1

>  <inhibition, %>
-8.27

$$$$
>  <Compound>
CCCCCCC(=O)N1CCN(c2cc3c(cc2F)c(=O)c(C(=O)O)cn3CC)CC1

>  <inhibition, %>
6.04

$$$$
>  <Compound>
OC(CCCN1CCC(O)(c2ccc(Cl)cc2)CC1)c1ccc(F)cc1 (configuration not stated)

>  <inhibition, %>
14.6

$$$$
>  <Compound>
COc1ccc(OC)c2c1CCC2=O

>  <inhibition, %>
-1.12

$$$$
>  <Compound>
CCOC(=O)c1ccccc1OCc1cc(/C=N/n2cncn2)ccc1OC

>  <inhibition, %>
-2.29

$$$$
>  <Compound>
COc1ccc(/C(O)=C2/C(=O)C(=O)N(CCN(C)C)C2c2ccccn2)cc1OC (configuration not stated)

>  <inhibition, %>
2.71

$$$$
>  <Compound>
c1ccc2c(c1)NC(c1ccncc1)n1c-2nc2ccccc21 (configuration not stated)

>  <inhibition, %>
-2.91

$$$$
>  <Compound>
CCN(CC)C(=O)c1sc2nc(-c3cccs3)cc(-c3cccs3)c2c1N

>  <inhibition, %>
9.61

$$$$
>  <Compound>
C=CCOn1c(=O)c(-c2cc3ccccc3o2)[n+]([O-])c2ccccc21

>  <inhibition, %>
-8.76

$$$$
>  <Compound>
Cc1cc(-c2ccccc2)nnc1NCCN1CCOCC1

>  <inhibition, %>
25.7

$$$$
>  <Compound>
C=CCn1c(=S)[nH]c2nc3c(cc2c1=O)COC(C)(C)C3

>  <inhibition, %>
3.66

$$$$
>  <Compound>
CCOC(=O)CCC(=O)O[C@H]1[C@H](O[C@@H]2[C@@H](C)[C@H](O[C@H]3C[C@@](C)(OC)[C@@H](O)[C@H](C)O3)[C@@H](C)C(=O)O[C@H](CC)[C@@](C)(O)[C@H](O)[C@@H](C)C(=O)[C@H](C)C[C@@]2(C)O)O[C@H](C)C[C@@H]1N(C)C

>  <inhibition, %>
-4.44

$$$$
>  <Compound>
COCCOC(=O)c1c(C)nc(SCC(=O)Nc2ccc(OC)cc2)c(C#N)c1-c1ccco1

>  <inhibition, %>
-6.59

$$$$
>  <Compound>
N/C(=N\c1nc2ccccc2o1)NC(=O)c1ccccc1NC(=O)c1ccccc1

>  <inhibition, %>
2.46

$$$$
>  <Compound>
Cc1ccc(C2CC(C(F)(F)F)n3ncc(C(N)=O)c3N2)cc1 (configuration not stated)

>  <inhibition, %>
-7.79

$$$$
>  <Compound>
CCCCn1cnc2c(c1=O)c1nc3ccccc3nc1n2Cc1ccc2c(c1)OCO2

>  <inhibition, %>
-4.7

$$$$
>  <Compound>
c1ccc2c(NCC3CCCO3)nc(-c3ccncc3)nc2c1 (configuration not stated)

>  <inhibition, %>
1.48

$$$$
>  <Compound>
CC(=O)OCC(=O)[C@@]1(OC(C)=O)[C@@H](C)C[C@H]2[C@@H]3C[C@H](F)C4=CC(=O)C=C[C@]4(C)[C@@]3(F)[C@@H](O)C[C@@]21C

>  <inhibition, %>
29.1

$$$$
>  <Compound>
CC(=O)Nc1ccc(-c2cc3ccccc3o2)cc1

>  <inhibition, %>
-0.233

$$$$
>  <Compound>
CCCCn1c(O)c(C=NCCCN(C)C)c(=O)[nH]c1=O

>  <inhibition, %>
4.25

$$$$
>  <Compound>
NS(=O)(=O)c1cc2c(cc1Cl)NC(C(Cl)Cl)NS2(=O)=O (configuration not stated)

>  <inhibition, %>
-4.44

$$$$
>  <Compound>
N=c1c2c(-c3ccccc3)c(-c3ccccc3)n(Cc3ccccc3)c2ncn1CCCn1ccnc1

>  <inhibition, %>
-1.75

$$$$
>  <Compound>
CN=c1sc2ccccc2n1CC(O)COCc1ccco1 (configuration not stated)

>  <inhibition, %>
1.04

$$$$
>  <Compound>
Cc1ccc(N(Cc2cc3ccccc3[nH]c2=O)C(=O)c2ccco2)c(C)c1

>  <inhibition, %>
-14

$$$$
>  <Compound>
COC(=O)CSC1=C(C#N)C(=O)NC2(CCCCC2)S1

>  <inhibition, %>
-11.5

$$$$
>  <Compound>
CC(C)(C)NC(=O)CSc1nsc(SCC(=O)NC(C)(C)C)c1C#N

>  <inhibition, %>
-4.27

$$$$
>  <Compound>
CCC(NC(C)C)C(O)c1ccc(O)c2[nH]c(=O)ccc12 (configuration not stated)

>  <inhibition, %>
13.3

$$$$
>  <Compound>
CC12CCC(C(=O)NCCCN3CCOCC3)(OC1=O)C2(C)C (configuration not stated)

>  <inhibition, %>
8.76

$$$$
>  <Compound>
CC(=O)C1=C(O)C(=O)N(Cc2cccnc2)C1c1ccccc1Cl (configuration not stated)

>  <inhibition, %>
31.1

$$$$
>  <Compound>
CCOC(=O)c1ccc(NC(=O)Cn2nnc3ccccc32)cc1

>  <inhibition, %>
7.48

$$$$
>  <Compound>
Nc1nnnn1CC(=O)OCc1cccc(Br)c1

>  <inhibition, %>
1.42

$$$$
